Sourced from patent US8829011B2

# System under test: human recombinant 5-HT6 receptor (Homo sapiens, UniProt P50406)
# Sequence (P50406 whole entry): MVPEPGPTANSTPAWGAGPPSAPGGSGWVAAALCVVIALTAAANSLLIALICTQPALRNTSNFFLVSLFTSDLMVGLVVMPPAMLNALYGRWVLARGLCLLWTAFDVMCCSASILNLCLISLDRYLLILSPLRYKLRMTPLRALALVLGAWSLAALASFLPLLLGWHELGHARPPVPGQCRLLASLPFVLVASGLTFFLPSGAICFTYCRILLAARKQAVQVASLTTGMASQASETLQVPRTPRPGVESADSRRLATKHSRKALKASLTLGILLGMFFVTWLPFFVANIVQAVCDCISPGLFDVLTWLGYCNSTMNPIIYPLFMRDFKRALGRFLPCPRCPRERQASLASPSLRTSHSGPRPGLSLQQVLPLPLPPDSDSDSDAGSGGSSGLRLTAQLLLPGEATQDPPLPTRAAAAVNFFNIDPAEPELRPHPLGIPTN
# Assay protocol: Affinity for 5-HT6 receptor binding sites (competitive radioligand binding, [3H]LSD)
# Experimental setup: membranes of HEK-293 with h5-HT6, * = tested as hydrochloride salt
Counter-ions that a name gives are not always drawn.
# key: entry, value: Ki

Sample records with Ki:
Compound: C[C@@H]1CCC[C@H](C)N1c1nc2c(c(-c3ccc4c(c3)OCCO4)n1)CCNCC2 [Example 87]
System under test: human recombinant 5-HT6 receptor (Homo sapiens, UniProt P50406)
Metric name: Ki
Result: 82 nM

Compound: CCN(CC)c1nc2c(c(-c3ccc(C)cc3)n1)CCNCC2 [Example 11, hydrochloride]
System under test: human recombinant 5-HT6 receptor (Homo sapiens, UniProt P50406)
Metric name: Ki
Result: 25 nM

Compound: Cc1ccc(-c2nc(N3CCOC[C@H]3C)nc3c2CCNCC3)cc1 [Example 100]
System under test: human recombinant 5-HT6 receptor (Homo sapiens, UniProt P50406)
Metric name: Ki
Result: 6 nM

With those in mind, consider the next compound.
So what does the record say about Ki for CCN(CC)c1nc2c(c(-c3ccsc3)n1)CCNCC2 [Example 12, hydrochloride] ?
80 nM
